# Measured Target: T1, hu-sCD47-6His; extracellular domain of human CD47 antigen with 6His-tag (human)
# T1 construct: also called hCD47-his; soluble hCD47
# Procedure Summary: SPR Biacore
Readout Name: pKd
The quantity pKd is defined as the negative base-10 logarithm of the molar concentration.

Prompt: Need pKd, item h20-H2-L5Y (candidate 20.26), huIgG4_S228P format (antibody, V domains shown, also called H20-VH2-VL5,Y; h2O-H2L5Y) VH: QVQLVQSGAEVKKPGASVKVSCKASGYSFTDYYINWVRQAPGQGLEWMGRIYPGIGNTYYNKKFKGRVTITRDTSASTAYMELSSLRSEDTAVYYCARGHYGRGMDYWGQGTLVTVSS VL: DIVMTQSPDSLAVSLGERATINCKSSQSLLNSIDQKNYLAWYQQKPGQPPKLLIYYASTKESGVPDRFSGSGSGTDFTLTISGLQAEDVAVYFCQQHYSTPWTFGGGTKVEIRR
Completion: 8.63
